Test system: Mus musculus
assay explanation: Anxiolytic activity in Mus musculus Swiss albino (mouse) assessed as time spent in light chamber at 25 mg/kg by light-dark box test
Type: functional
# Time per entry
Field format: number, assumed s, no unit text.

>>> numeric_result("O=C(Nc1nnc(Sc2ccc(C(Cl)(Cl)Cl)cc2)s1)c1ccccc1")
152.33

Which Time value belongs to O=C(Nc1nnc(Sc2ccc(S(=O)(=O)Cl)cc2)s1)c1ccccc1 ?
166.66

Record request: Time value, item Cc1ccc(Sc2nnc(NC(=O)c3ccccc3)s2)cc1
143

Which Time is reported for this compound? O=C(Nc1nnc(Sc2ccc(Br)cc2)s1)c1ccccc1
153.16

====

Test system: Mus musculus
assay explanation: Antidepressant activity in Mus musculus Swiss albino (mouse) assessed as as increase in mobile phase at 25 mg/kg, ip measured after 1 hr by tail suspension test
Type: functional
assay conditions: route intraperitoneal
Reported Activity values for a set of molecules
Numbers only here, please. The scale is %.

>>> numeric_result("O=C(Nc1nnc(Sc2ccc(F)cc2)s1)c1ccccc1")
28.45
>>> numeric_result("O=C(Nc1nnc(Sc2ccc(C(F)(F)F)cc2)s1)c1ccccc1")
46.93
>>> numeric_result("Cc1ccc(Sc2nnc(NC(=O)c3ccccc3)s2)cc1")
17.26
>>> numeric_result("O=C(Nc1nnc(Sc2ccc(Br)cc2)s1)c1ccccc1")
12
>>> numeric_result("O=C(Nc1nnc(Sc2ccc(S(=O)(=O)Cl)cc2)s1)c1ccccc1")
49.29
>>> numeric_result("NS(=O)(=O)c1ccc(Sc2nnc(NC(=O)c3ccccc3)s2)cc1")
49.86

Next molecule, Activity to be filled in.
Please state recorded Activity (tested on Mus musculus) of O=C(Nc1nnc(Sc2ccc(C(Cl)(Cl)Cl)cc2)s1)c1ccccc1
30.7

====

Test system: Mus musculus
assay explanation: Toxicity in Mus musculus Swiss albino (mouse) assessed as mortality at 25 mg/kg, po
Format: organism-based
Design: dose 25 mg/kg, route oral
assay conditions: in vivo
property name: Activity

>>> result("O=C(Nc1nnc(Sc2ccc(C(Cl)(Cl)Cl)cc2)s1)c1ccccc1")
"Non-toxic"
>>> result("Cc1ccc(Sc2nnc(NC(=O)c3ccccc3)s2)cc1")
"Non-toxic"
>>> result("O=C(Nc1nnc(Sc2ccc(Br)cc2)s1)c1ccccc1")
"Toxic"
>>> result("NS(=O)(=O)c1ccc(Sc2nnc(NC(=O)c3ccccc3)s2)cc1")
"Toxic"
>>> result("O=C(Nc1nnc(Sc2ccc(C(F)(F)F)cc2)s1)c1ccccc1")
"Toxic"
>>> result("O=C(Nc1nnc(Sc2ccc(S(=O)(=O)Cl)cc2)s1)c1ccccc1")
"Non-toxic"

// switching to the query compound
Look up Activity for this compound: O=C(Nc1nnc(Sc2ccc(F)cc2)s1)c1ccccc1
Non-toxic

====

Each entry below carries its recorded Time.
Tested on: Mus musculus
assay explanation: Anticonvulsant activity against maximal electroshock-induced seizures in Mus musculus Swiss albino (mouse) assessed as time duration of tonic limb extensor at 25 mg/kg
Type: functional
Give just the number in s; leave the unit off.

>>> numeric_result("O=C(Nc1nnc(Sc2ccc(C(F)(F)F)cc2)s1)c1ccccc1")
6.18
>>> numeric_result("O=C(Nc1nnc(Sc2ccc(C(Cl)(Cl)Cl)cc2)s1)c1ccccc1")
7.08
>>> numeric_result("O=C(Nc1nnc(Sc2ccc(F)cc2)s1)c1ccccc1")
6.37

// Time lookup, key: O=C(Nc1nnc(Sc2ccc(S(=O)(=O)Cl)cc2)s1)c1ccccc1
6.25

Value lookup for Time; key = O=C(Nc1nnc(Sc2ccc(Br)cc2)s1)c1ccccc1
7.96

Which measured Time value corresponds to Cc1ccc(Sc2nnc(NC(=O)c3ccccc3)s2)cc1 ?
7.35

Recorded Time for NS(=O)(=O)c1ccc(Sc2nnc(NC(=O)c3ccccc3)s2)cc1 , please?
6.7

====

Test system: Mus musculus
assay explanation: Anxiolytic activity in Mus musculus Swiss albino (mouse) assessed as time spent in light chamber at 25 mg/kg by light-dark box test
Format: functional
property name: Time (s)
The reply should be a number in s, with the unit left off.

>>> numeric_result("O=C(Nc1nnc(Sc2ccc(C(F)(F)F)cc2)s1)c1ccccc1")
163

Fill in the blank: the reported Time of O=C(Nc1nnc(Sc2ccc(F)cc2)s1)c1ccccc1 is ____.
153.66

GET /values?readout=Time&item= NS(=O)(=O)c1ccc(Sc2nnc(NC(=O)c3ccccc3)s2)cc1
163.66

Cited source: ChEMBL document CHEMBL3046241
